Hello, the source for this data is PubChem BioAssay AID2330, in case you need it.

assay: NOMO-1 AML cell viability reduction, primary screen, STK33 inhibitor project, CellTiter-Glo luminescence (AID 2330); conditions: NOMO-1 AML viability, 72 h, stronger effect = higher value, concentration not given here
Out of some 37,000 compounds screened, about 2,800 (7.6%) were called active. Another 1% or so got no clear call; they are omitted. The full list was thinned out, with actives kept by preference.
readout.label: inhibition

Solved cases below.
| smiles.record | recorded.result |
| --- | --- |
| COc1ccc(NC(=O)C(=O)NCC(=O)Nc2cccc(C(F)(F)F)c2)cc1 | 14% (inactive) |
| Cc1noc(C)c1NC(=O)Nc1ccc2c(c1)C(=O)N([C@@H](C)CO)C[C@H](C)[C@@H](CN(C)C)O2 | 17.2% (inactive) |
| C[C@@H]1CCCCO[C@H](CN(C)S(C)(=O)=O)[C@@H](C)CN([C@H](C)CO)C(=O)c2cc(NS(=O)(=O)c3ccc(Cl)cc3)ccc2O1 | 4.39% (inactive) |

Ask: Which measured inhibition value corresponds to C[C@@H]1CN([C@@H](C)CO)C(=O)c2cccc(NC(=O)c3ccc(-c4nccs4)cc3)c2O[C@H]1CN(C)C(=O)Nc1ccccc1 ?
Result: -9.67% (inactive)
